Tested on: Escherichia coli
Test: Antibacterial activity against Escherichia coli by broth dilution method
Type: functional
Lab note: compare MIC with 100 µg/mL, writing true if less and false if equal or more.

Worked examples, 5 compounds total:
{"compound": "Cc1cc(Cl)nc2ccc3c(=O)c(C(=O)NN4C(=O)C(Cl)C4c4ccccc4Cl)c[nH]c3c12 (stereo not drawn)", "class": "false"}
{"compound": "O=C(O)c1cn(C2CC2)c2cc(N3CCNCC3)c(F)cc2c1=O", "class": "true"}
{"compound": "COc1ccccc1C1C(Cl)C(=O)N1NC(=O)c1c[nH]c2c(ccc3nc(Cl)cc(C)c32)c1=O (stereo not drawn)", "class": "false"}
{"compound": "Cc1cc(Cl)nc2ccc3c(=O)c(C(=O)NN4C(=O)C(Cl)C4c4cccc([N+](=O)[O-])c4O)c[nH]c3c12 (stereo not drawn)", "class": "true"}
{"compound": "COc1cc(C2C(Cl)C(=O)N2NC(=O)c2c[nH]c3c(ccc4nc(Cl)cc(C)c43)c2=O)ccc1O (stereo not drawn)", "class": "false"}

# input for lookup
[ask] Problem: For the compound O=C(N[C@H](CO)[C@H](O)c1ccc([N+](=O)[O-])cc1)C(Cl)Cl , is MIC under 100 µg/mL?
[reply] true

----------
System: Candida albicans
Assay: Antifungal activity against Candida albicans by broth dilution method
Format: functional
property_measured: MIC (µg/mL)
Write the value in µg/mL as a bare number.

Below are worked cases with known answers.
{"compound": "Cc1ccc(/C=N/NC(=O)c2c[nH]c3c(ccc4nc(Cl)cc(C)c43)c2=O)cc1", "uom": "µg/mL", "MIC": 250}
{"compound": "COC1=CC(=O)C[C@@H](C)[C@]12Oc1c(Cl)c(OC)cc(OC)c1C2=O [GRISEOFULVIN]", "uom": "µg/mL", "MIC": 500}
{"compound": "Cc1cc(Cl)nc2ccc3c(=O)c(C(=O)N/N=C/c4ccccc4Cl)c[nH]c3c12", "uom": "µg/mL", "MIC": 250}
{"compound": "COc1ccccc1/C=N/NC(=O)c1c[nH]c2c(ccc3nc(Cl)cc(C)c32)c1=O", "uom": "µg/mL", "MIC": 500}
{"compound": "Cc1cc(Cl)nc2ccc3c(=O)c(C(=O)N/N=C/c4ccc(Cl)cc4)c[nH]c3c12", "uom": "µg/mL", "MIC": 500}

[ask] # query: MIC of entry Cc1cc(Cl)nc2ccc3c(=O)c(C(=O)NN4C(=O)C(Cl)C4c4ccccc4)c[nH]c3c12 (stereo not drawn)
[reply] 500

[ask] # query: MIC of entry Cc1cc(Cl)nc2ccc3c(=O)c(C(=O)N/N=C/c4ccccc4O)c[nH]c3c12
[reply] 100

[ask] # query: MIC of entry Cc1ccc(C2C(Cl)C(=O)N2NC(=O)c2c[nH]c3c(ccc4nc(Cl)cc(C)c43)c2=O)cc1 (stereo not drawn)
[reply] 200

----------
Tested on: Staphylococcus aureus
Test: Antibacterial activity against Staphylococcus aureus by broth dilution method
Assay type: functional
Lab note: compare MIC with 200 µg/mL, writing MET if less and NOT MET if equal or more.

Worked examples, 4 compounds total:
{"compound": "Cc1cc(Cl)nc2ccc3c(=O)c(C(=O)NN4C(=O)C(Cl)C4c4cc([N+](=O)[O-])ccc4O)c[nH]c3c12 (stereo not drawn)", "experimental_target": "Staphylococcus aureus", "class": "NOT MET"}
{"compound": "Cc1cc(Cl)nc2ccc3c(=O)c(C(=O)N/N=C/c4ccc(Cl)cc4)c[nH]c3c12", "experimental_target": "Staphylococcus aureus", "class": "NOT MET"}
{"compound": "O=C(N[C@H](CO)[C@H](O)c1ccc([N+](=O)[O-])cc1)C(Cl)Cl [CHLORAMPHENICOL]", "experimental_target": "Staphylococcus aureus", "class": "MET"}
{"compound": "CCn1cc(C(=O)O)c(=O)c2cc(F)c(N3CCNCC3)cc21 [NORFLOXACIN]", "experimental_target": "Staphylococcus aureus", "class": "MET"}

# input for lookup
[ask] Problem: For the compound CC1(C)S[C@@H]2[C@H](NC(=O)[C@H](N)c3ccccc3)C(=O)N2[C@H]1C(=O)O [AMPICILLIN] , is MIC under 200 µg/mL?
[reply] NOT MET
